Recorded values, source patent US20230277698A1.

Test system: LNCaP tumor-bearing CB17-SCID mice
Method notes: Biodistribution studies 24 h p.i.
Format: in vivo
Run parameters: 177Lu-labelled, mean±SD, n=4-5
Just a reminder that ties go to No: only biodistribution: liver strictly below 0.1 % ID/g counts as Yes.

Compound	Group
CC(C)(C)[Si](O)(c1ccc(C(=O)NC[C@@H](NC(=O)CC[C@@H](C(=O)O)N2CCN(CC(=O)O)CCN(CC(=O)O)CCN(CC(=O)O)CC2)C(=O)N[C@H](CO)C(=O)NCCC(=O)NCCC(=O)NCCC[C@@H](NC(=O)CC[C@H](NC(=O)N[C@@H](CCC(=O)O)C(=O)O)C(=O)O)C(=O)O)cc1)C(C)(C)C	No
CC(C)(C)[Si](O)(c1ccc(C(=O)NC[C@@H](NC(=O)CC[C@@H](C(=O)O)N2CCN(CC(=O)O)CCN(CC(=O)O)CCN(CC(=O)O)CC2)C(=O)NCC(=O)N[C@@H](CCCCNC(=O)CCC(=O)NCCC[C@@H](NC(=O)CC[C@H](NC(=O)N[C@@H](CCC(=O)O)C(=O)O)C(=O)O)C(=O)O)C(=O)O)cc1)C(C)(C)C	Yes
CC(C)(C)[Si](F)(c1ccc(C(=O)NC[C@@H](NC(=O)CC[C@@H](C(=O)O)N2CCN(CC(=O)O)CCN(CC(=O)O)CCN(CC(=O)O)CC2)C(=O)N[C@H](CCCCNC(=O)CCC(=O)NCCC[C@@H](NC(=O)CC[C@H](NC(=O)N[C@@H](CCC(=O)O)C(=O)O)C(=O)O)C(=O)O)C(=O)O)cc1)C(C)(C)C [rhPSMA-7.3, reference compound]	No

Determine if CC(C)(C)[Si](O)(c1ccc(C(=O)N[C@H](CCC(=O)NC[C@@H](NC(=O)CC[C@@H](C(=O)O)N2CCN(CC(=O)O)CCN(CC(=O)O)CCN(CC(=O)O)CC2)C(=O)NCCCCCC(=O)NCCC[C@@H](NC(=O)CC[C@H](NC(=O)N[C@@H](CCC(=O)O)C(=O)O)C(=O)O)C(=O)O)C(=O)O)cc1)C(C)(C)C shows biodistribution: liver strictly lower than 0.1 % ID/g. No

Determine if O=C(O)CC[C@H](NC(=O)N[C@@H](CCCCNC(=O)CCCCCCC(=O)NCCCC[C@@H](NC(=O)[C@@H](Cc1ccccc1)NC(=O)[C@@H](Cc1ccc(O)c(I)c1)NC(=O)CCC(C(=O)O)N1CCN(CC(=O)O)CCN(CC(=O)O)CCN(CC(=O)O)CC1)C(=O)O)C(=O)O)C(=O)O (some centres unmarked) [PSMA I&T, reference compound] shows biodistribution: liver strictly lower than 0.1 % ID/g. Yes

Determine if CC(C)(C)[Si](O)(c1ccc(C(=O)NC[C@@H](NC(=O)CC[C@@H](C(=O)O)N2CCN(CC(=O)O)CCN(CC(=O)O)CCN(CC(=O)O)CC2)C(=O)N[C@H](CCCCNC(=O)CCC(=O)NCCC[C@@H](NC(=O)CC[C@H](NC(=O)N[C@@H](CCC(=O)O)C(=O)O)C(=O)O)C(=O)O)C(=O)O)cc1)C(C)(C)C shows biodistribution: liver strictly lower than 0.1 % ID/g. Yes

Determine if CC(C)(C)[Si](F)(c1ccc(C(=O)NC[C@@H](NC(=O)CN2CCN(CC(=O)O)CCN(CC(=O)O)CCN(CC(=O)O)CC2)C(=O)N[C@H](CCCCNC(=O)CCC(=O)NCCC[C@@H](NC(=O)CC[C@H](NC(=O)N[C@@H](CCC(=O)O)C(=O)O)C(=O)O)C(=O)O)C(=O)O)cc1)C(C)(C)C [rhPSMA-10, reference compound] shows biodistribution: liver strictly lower than 0.1 % ID/g. No

Determine if O=C(O)CC[C@H](NC(=O)N[C@@H](CCCCNC(=O)[C@H](Cc1ccc2ccccc2c1)NC(=O)[C@H]1CC[C@H](CNC(=O)CN2CCN(CC(=O)O)CCN(CC(=O)O)CCN(CC(=O)O)CC2)CC1)C(=O)O)C(=O)O [PSMA-617, reference compound] shows biodistribution: liver strictly lower than 0.1 % ID/g. No
